B1: HDV Ribozyme (parent)
chain: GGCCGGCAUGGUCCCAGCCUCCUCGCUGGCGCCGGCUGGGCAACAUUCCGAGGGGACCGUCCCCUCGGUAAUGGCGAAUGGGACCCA

Variants of: B1
ASSAY: self-cleavage, relative activity (ratio to wild type); higher = more cleavage; co-transcriptional
Could you please classify the records by self-cleavage using these ranges: A (below 0.2), B (0.2 to below 0.6), C (0.6 or more)

Reference set (10 entries):
VARIANT	CLASS LABEL
C22A U72A	A
U12G G52C	C
C13U C14A	A
C7G U37C	B
U60A A83G	C
U12C G80C	A
U23A C57U	C
A16C C26A	C
G39C U47C	A
G11C C49U	B

GET /class?item= G1C A56G
B

GET /class?item= U27G G54C
C

GET /class?item= U12G C13A
B

GET /class?item= G6C G35C
A
